System: 3D cardiac tissues (hiPSC-derived cardiomyocytes)
experimental_parameters: human, 1 h
measured_attribute: Concentration at which complete arrest of contraction was observed (µM)

Example cases with answers are listed next.
compound	readout_unit	endpoint_result
Cc1c(C)c2c(c(C)c1O)CCC(C)(COc1ccc(CC3SC(=O)NC3=O)cc1)O2 (centres unmarked)	µM	50
CC[C@H]1OC(=O)[C@H](C)[C@@H](O[C@H]2C[C@@](C)(OC)[C@@H](O)[C@H](C)O2)[C@H](C)[C@@H](O[C@@H]2O[C@H](C)C[C@H](N(C)C)[C@H]2O)[C@](C)(O)C[C@@H](C)C(=O)[C@H](C)[C@@H](O)[C@]1(C)O	µM	10

(P) N[C@@H]1[C@H]2CN(c3nc4c(cc3F)c(=O)c(C(=O)O)cn4-c3ccc(F)cc3F)C[C@@H]12
(Q) CN(CCOc1ccc(CC2SC(=O)NC2=O)cc1)c1ccccn1 (centres unmarked)
(R) C=C[C@H]1C[N@@]2CC[C@H]1C[C@@H]2[C@@H](O)c1ccnc2ccc(OC)cc12
Put these in order: smallest Concentration at which complete arrest of contraction was observed first, largest last. The labels, placed in the requested order, form the answer.
R, Q, P
